target: CDK4/cyclin D3 (Homo sapiens, UniProt P11802); construct: made in house; host or cells: insect cells (baculovirus co-infection); test: Inhibition of CDK4/Cyclin D retinoblastoma kinase activity; type: biochemical; conditions: test compound at 0.03 (unit cell empty, head line shifted; μM)
Sequence (P11802 whole entry): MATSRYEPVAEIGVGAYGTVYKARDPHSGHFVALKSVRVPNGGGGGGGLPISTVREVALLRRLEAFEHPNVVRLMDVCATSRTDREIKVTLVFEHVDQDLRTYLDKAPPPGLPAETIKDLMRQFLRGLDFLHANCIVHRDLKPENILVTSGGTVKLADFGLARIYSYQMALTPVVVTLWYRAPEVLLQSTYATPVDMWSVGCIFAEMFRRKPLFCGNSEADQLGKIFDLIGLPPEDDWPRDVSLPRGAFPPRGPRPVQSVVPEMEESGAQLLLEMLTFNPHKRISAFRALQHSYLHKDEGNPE
Sequence (P30281 1-264 partner limits assumed): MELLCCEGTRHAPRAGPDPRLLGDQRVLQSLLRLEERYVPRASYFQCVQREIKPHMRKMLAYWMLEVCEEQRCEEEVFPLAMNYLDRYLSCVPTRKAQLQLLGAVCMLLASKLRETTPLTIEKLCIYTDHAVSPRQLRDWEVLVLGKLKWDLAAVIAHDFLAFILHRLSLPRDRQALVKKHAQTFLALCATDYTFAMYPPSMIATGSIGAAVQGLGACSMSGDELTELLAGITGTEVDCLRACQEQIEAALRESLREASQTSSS
endpoint label: % Inhib CDK4/D @ 0.03 (%)

I: Nc1nc(Nc2ccc(S(=O)(=O)Cc3ncon3)cc2)sc1C(=O)c1c(Cl)cccc1Cl [DD(208)]
II: NC(=O)CS(=O)(=O)c1ccc(Nc2nc(N)c(C(=O)c3c(Cl)cccc3Cl)s2)cc1 [DD(221)]
III: COC(=O)/C=C/CS(=O)(=O)c1ccc(Nc2nc(N)c(C(=O)c3c(Cl)cccc3Cl)s2)cc1 [DD(204)]
IV: Nc1nc(Nc2ccc(S(=O)(=O)Cc3ncon3)cc2)sc1C(=O)c1c(Cl)cccc1Cl [DD(168)]
Lookup: Highest % Inhib CDK4/D @ 0.03 first, then in falling order down to the smallest. Enter labels, ranked according to the request.
Found: IV, I, III, II
(IV: 8.3%, I: 0.2%, III: −3.4%, II: −14%)

###

target: CDK2/cyclin A (Homo sapiens); construct: made in house; host or cells: CDK2: insect cells (baculovirus); cyclin A: E. coli, then limited proteolysis; assay: Inhibition of CDK2/Cyclin A retinoblastoma kinase activity; assay type: biochemical; conditions: apparent Ki, Rb fragment substrate
endpoint label: Ki (nM)

# structure, assayed target, measurement unit, Ki
records = [
    ("Nc1nc(Nc2ccc(S(=O)(=O)N3CCC(CCO)CC3)cc2)sc1C(=O)c1c(F)cccc1F", "CDK2/cyclin A (Homo sapiens)", "nM", 18),
    ("Nc1nc(Nc2ccc(S(=O)(=O)NCCc3cccs3)cc2)sc1C(=O)c1c(F)cccc1F", "CDK2/cyclin A (Homo sapiens)", "nM", 13),
]

###

target: CDK4/cyclin D3 (Homo sapiens); construct: made in house; host or cells: insect cells (baculovirus co-infection); test: Inhibition of CDK4/Cyclin D retinoblastoma kinase activity; format: biochemical; conditions: test compound at 1 μM (head line shifted: 'mM' printed beside 'Structure'); read-out: % Inhib CDK4/D @ 1 μM
endpoint label: inhibition at 1 µM (%)

Example molecules with recorded inhibition at 1 µM:
# molecule, inhibition at 1 µM (%)
data = [
    ("CN(C)CC[S+]([O-])c1ccc(Nc2nc(N)c(C(=O)c3c(Cl)cccc3Cl)s2)cc1 (stereo not shown)", 63.2),
    ("Nc1nc(Nc2ccc(SCC(O)CO)cc2)sc1C(=O)c1c(Cl)cccc1Cl (stereo not shown)", 89.3),
    ("Nc1nc(Nc2ccc(S(=O)(=O)Cc3ncon3)cc2)sc1C(=O)c1c(Cl)cccc1Cl", 30.7),
]

1: CC(C)CCSc1cccc(Nc2nc(N)c(C(=O)c3c(Cl)cccc3Cl)s2)c1
2: COC(=O)/C=C/CSc1cccc(Nc2nc(N)c(C(=O)c3c(Cl)cccc3Cl)s2)c1
3: Nc1nc(Nc2cccc(SCC3CCCO3)c2)sc1C(=O)c1c(Cl)cccc1Cl (stereo not shown)
Lookup: List by increasing inhibition at 1 µM. Enter labels, ranked according to the request.
Found: 1, 2, 3

###

biological target: CDK4/cyclin D3 (Homo sapiens, UniProt P11802); construct: made in house; host or cells: insect cells (baculovirus co-infection); test: Inhibition of CDK4/Cyclin D retinoblastoma kinase activity; assay type: biochemical; details: test compound at 0.03 (unit cell empty, head line shifted; μM); read-out: % Inhib CDK4/D @ 0.03
endpoint label: inhibition at 0.03 µM (%)

# molecule, inhibition at 0.03 µM (%)
records = [
    ("CN1CCCC1CCSc1cccc(Nc2nc(N)c(C(=O)c3c(Cl)cccc3Cl)s2)c1 (stereo not shown) [DD(59)]", 20),
    ("CC(C)(CO)C[S+]([O-])c1cccc(Nc2nc(N)c(C(=O)c3c(Cl)cccc3Cl)s2)c1 (stereo not shown) [DD(160)]", 8.1),
    ("NC(=O)CCSc1ccc(Nc2nc(N)c(C(=O)c3c(Cl)cccc3Cl)s2)cc1 [DD(28)]", 19),
    ("CCC(CC)C[S+]([O-])c1cccc(Nc2nc(N)c(C(=O)c3c(Cl)cccc3Cl)s2)c1 (stereo not shown) [DD(156)]", 17),
    ("COCC[S+]([O-])c1ccc(Nc2nc(N)c(C(=O)c3c(Cl)cccc3Cl)s2)cc1 (stereo not shown) [DD(94)]", 17),
]

A: Nc1nc(Nc2cccc(SCC3CCCO3)c2)sc1C(=O)c1c(Cl)cccc1Cl (stereo not shown) [DD(58)]
B: CC1(CSc2cccc(Nc3nc(N)c(C(=O)c4c(Cl)cccc4Cl)s3)c2)CO1 (stereo not shown) [DD(60)]
Lookup: Short answer wanted: higher inhibition at 0.03 µM, A or B ? # reply format: chosen label
Found: B

###

Biological target: CDK4/cyclin D3 (Homo sapiens, UniProt P11802)
Assay: Inhibition of CDK4/Cyclin D retinoblastoma kinase activity
Conditions: apparent Ki, Rb fragment substrate
Protocol: Cyclin-dependent kinase activity was measured by quantifying the enzyme-catalyzed, time-dependent incorporation of radioactive phosphate from [^32P]ATP or [^33P]ATP into a protein substrate. […] The phosphorylated substrate was then captured on a nitrocellulose or phosphocellulose membrane using a 96-well filtration manifold, and unincorporated radioactivity was removed by repeated washing with 0.85% phosphoric acid. Radioactivity was quantified by exposing the dried membranes to a phosphorimager. […]
pKi: −log10 of the molar value.
endpoint label: pKi

Example compounds with recorded pKi:
# compound, quantitative result
rows = [
    ("Nc1nc(Nc2ccc(S(=O)(=O)NCCCN3CCCC3)cc2)sc1C(=O)c1c(F)cccc1F [Example A(8)]", 8.00),
    ("CC(C)OCCCNS(=O)(=O)c1ccc(Nc2nc(N)c(C(=O)c3c(F)cccc3F)s2)cc1 [Example A(10)]", 7.92),
    ("Nc1nc(Nc2ccc(S(=O)(=O)NCCc3ccccn3)cc2)sc1C(=O)c1c(F)cccc1F [A(24)]", 7.74),
    ("Nc1nc(Nc2ccc(S(=O)(=O)NCCCN3CCCCC3)cc2)sc1C(=O)c1c(F)cccc1F [Example A(14)]", 8.09),
]

P: NC(=O)C[S+]([O-])c1cccc(Nc2nc(N)c(C(=O)c3c(Cl)cccc3Cl)s2)c1 (stereo not shown) [Z(5)]
Q: Nc1nc(Nc2ccc(S(=O)(=O)NCc3cccs3)cc2)sc1C(=O)c1c(F)cccc1F [A(27)]
R: CCN(CC)CCCCNS(=O)(=O)c1ccc(Nc2nc(N)c(C(=O)c3c(F)cccc3F)s2)cc1 [A(26)]
Lookup: List by increasing pKi. Enter labels, ranked according to the request.
Found: P, Q, R

###

biological target: CDK2/cyclin A (Homo sapiens, UniProt P24941); construct: cyclin A: E. coli, then limited proteolysis; assay: Inhibition of CDK2/Cyclin A retinoblastoma kinase activity; settings: apparent Ki, Rb fragment substrate
pKi: −log10 of the molar value.
This listing pairs molecules with measured pKi.

Example molecules with recorded pKi:
# molecule, assayed target, pKi
rows = [
    ("Nc1nc(Nc2ccc(S(=O)(=O)NCCNc3ccccc3)cc2)sc1C(=O)c1c(F)cccc1F", "CDK2/cyclin A (Homo sapiens, UniProt P24941)", "> 8.30"),
    ("Cc1ccc(CNS(=O)(=O)c2ccc(Nc3nc(N)c(C(=O)c4c(F)cc(F)cc4F)s3)cc2)o1", "CDK2/cyclin A (Homo sapiens, UniProt P24941)", "> 8.00"),
    ("Cc1ccc(C(C)NS(=O)(=O)c2ccc(Nc3nc(N)c(C(=O)c4c(F)cccc4F)s3)cc2)o1 (stereo not shown)", "CDK2/cyclin A (Homo sapiens, UniProt P24941)", "> 8.30"),
]

Alright, here's another molecule for you.
Lookup: Need pKi, item CC(CCCC(C)(C)O)NS(=O)(=O)c1ccc(Nc2nc(N)c(C(=O)c3c(F)cccc3F)s2)cc1 (stereo not shown)
Found: > 8.30

###

target: CDK4/cyclin D3 (Homo sapiens); construct: made in house; host or cells: insect cells (baculovirus co-infection); test: Inhibition of CDK4/Cyclin D retinoblastoma kinase activity; assay type: biochemical; settings: test compound at 0.1 μM; read-out: % Inhib CDK4/D @ 0.1 μM
endpoint label: inhibition at 0.1 µM (%)

# compound, inhibition at 0.1 µM / %
records = [
    ("CCC(CC)CS(=O)(=O)c1ccc(Nc2nc(N)c(C(=O)c3c(Cl)cccc3Cl)s2)cc1", 30),
    ("COC(=O)CSc1ccc(Nc2nc(N)c(C(=O)c3c(Cl)cccc3Cl)s2)cc1", 65),
    ("COCC[S+]([O-])c1cccc(Nc2nc(N)c(C(=O)c3c(Cl)cccc3Cl)s2)c1 (centres unmarked)", 48),
]

P: Nc1nc(Nc2cccc(SCc3ccncc3)c2)sc1C(=O)c1c(Cl)cccc1Cl
Q: CCOC(=O)CC[S+]([O-])c1ccc(Nc2nc(N)c(C(=O)c3c(Cl)cccc3Cl)s2)cc1 (centres unmarked)
Lookup: Short answer wanted: higher inhibition at 0.1 µM, P or Q ? # reply format: chosen label
Found: Q
(Q: 42%, P: 29%)
